Source: patent US4786627A

# Tested on: maximal metrazol seizures (MMS)
# test_details: metrazol antagonism test, maximal metrazol seizures (MMS), inhibition of hind limb tonus, mouse
# Format: in vivo
# particulars: mouse, MMS, oral, t=1 hour; limits in parentheses; read-out: Inhibition of Hind Limb Tonus ED50 (limits), MOUSE MMS
readout_type: ED50

[[record]]
compound = "Cl.N=C(N)Nc1nnc(-c2ccccc2C(F)(F)F)s1"
endpoint_value = "45 mg/kg"

[[record]]
compound = "C/N=C(\\N)Nc1nnc(-c2ccccc2C(F)(F)F)s1"
endpoint_value = "44 mg/kg"

[[record]]
compound = "O=C1NC(=O)C(c2ccccc2)(c2ccccc2)N1"
endpoint_value = "8 mg/kg"

[[record]]
compound = "NC(=O)N1c2ccccc2C=Cc2ccccc21 [carbamazepine]"
endpoint_value = "11 mg/kg"

